Origin of values: patent US8168651B2

# targetSystem: recombinant human PIM1 (Homo sapiens (Human), UniProt P11309)
# Sequence (P11309 whole entry): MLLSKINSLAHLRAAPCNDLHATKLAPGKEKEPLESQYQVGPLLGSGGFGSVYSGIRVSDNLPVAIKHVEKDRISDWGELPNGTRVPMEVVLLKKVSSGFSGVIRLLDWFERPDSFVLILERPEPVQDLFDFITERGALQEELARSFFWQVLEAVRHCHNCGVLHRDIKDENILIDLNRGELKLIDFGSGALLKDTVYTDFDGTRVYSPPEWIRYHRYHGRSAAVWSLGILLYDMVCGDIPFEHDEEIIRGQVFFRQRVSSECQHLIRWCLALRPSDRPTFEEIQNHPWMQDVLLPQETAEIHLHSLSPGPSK
# experimentalProtocol: PIM-1 kinase activity in cell-free in vitro assay
# Assay type: biochemical
# conditionDetails: 500 nM compound, cell-free; read-out: PIM-1: % inh 500 nM
parameter: inhibition at 0.5 µM (%)

// solved cases for inhibition at 0.5 µM follow
| inputSmiles | unitAnnotation | inhibition at 0.5 µM |
| --- | --- | --- |
| CN(C)C(=O)c1cccc(Nc2nc3cc(-c4nnn[nH]4)ccc3c3sccc23)c1 | % | 49.1 |
| O=C(O)c1ccc2c(c1)nc(Nc1ccc(Cl)cc1)c1ccncc12 | % | 83 |

a. O=C(O)c1ccc2c(c1)nc(Nc1cccc(-c3ccccc3)c1)c1ccsc12
b. COc1ccc(OC)c(Nc2nc3cc(C(=O)O)ccc3c3sccc23)c1
c. O=C(O)c1ccc2c(c1)nc(Nc1ccc3[nH]ccc3c1)c1ccsc12
Incoming: Returns the items ordered by inhibition at 0.5 µM, from maximum to minimum. Rank the items, then write their labels in that order.
Outgoing: c, a, b
(c: 51.9%, a: 4.58%, b: -3.22%)
